Source: patent US9808512B2

Let's look at some substances and their measured Optical Densities in 96_Well Plate, Average.
- System: Human Pancreatic Adenocarcinoma Cells (HPAC)
- assay.text: HPAC cell viability, Calbiochem Rapid Cell Proliferation Kit, optical density at 450 nm
- Type: cell-based
- experimental.setup: peptide 0.1 μM, 48 hours, average of 5 replicate wells
A bare number is all that is needed in reply.

ANP: Natriuretic peptide; Table III sequence SLRRSSCFGGRMDRIGAQSGLGCNSFRY, SEQ ID NO:126 [reference compound]: 0.838
AGAALSPL [Ala-8-Leu, ID NO:85]: 0.991
PNEEAGAALSPLPEV [Pro-15-Val, ID NO:121]: 0.918
RSSCAGAALSPLGAC [Arg-15-Cys, ID NO:122]: 0.950

# get_value(readout='Optical Densities in 96_Well Plate, Average', item= RSSCFGGRIDRIGAC [C-ANP 4-23, ID NO:124, reference compound] )
0.942

---

- Test system: Human Pancreatic Adenocarcinoma Cells (HPAC)
- assay.text: HPAC cell viability, Calbiochem Rapid Cell Proliferation Kit, optical density at 450 nm
- Assay type: cell-based
- experimental.setup: peptide 0.3 μM, 48 hours, average of 5 replicate wells
Recorded Optical Densities in 96_Well Plate, Average by entry
Write the number on its own, no unit after it.

PNEEAGAALSPLPEV [Pro-15-Val, ID NO:121]: 0.916
AGAALSPL [Ala-8-Leu, ID NO:85]: 1.002
ANP: Natriuretic peptide; Table III sequence SLRRSSCFGGRMDRIGAQSGLGCNSFRY, SEQ ID NO:126 [reference compound]: 0.974
RSSCFGGRIDRIGAC [C-ANP 4-23, ID NO:124, reference compound]: 0.942

# input substance: RSSCAGAALSPLGAC [Arg-15-Cys, ID NO:122] ; wanted: its Optical Densities in 96_Well Plate, Average
0.897
